B1: Partner and localizer of BRCA2 (Mus musculus), Q3U0P1 (parent)
chain: MEELSGKPLSYAEKEKLKEKLAFLKKEYSRTLARLQRAKRAEKAKNSKKAIEDGVPQPEASSQLSHSESINKGFPCDTLQSNHLDEETGENISQILDVEPQSFNCKQGKEVLHTPRAGDIQGQLLHSTSSPDGKKEQNTLPGTTKTPWEKSSVSQEKEDYFDTNSLALLGKHRKGQESISRKNSRTPVSEKTHLLSLRSQIPDPPALVTGIGEGILIPPSGKSERGIDTLVRGNTVSAEAAVPSCTASNSNHSQHLEHTPPKSGCKITTQGPASSTNLVAQDQKMTIFTVNSVVYKAVRAHGQLPGSPNSCSVNDLTHSNLPANSTPNSKSLKSPSNTVDERNEPLQEDEILGPSKNFNLAAVSPPSTESQIHSCTMLEGLLFPAEYYVRTTRRMSDCQRKIALEAVIQSHLGVKKKELKKKTKATKAVVLSSEDTDQSESGMLDTSTGQSSSGSLSQKLLSPAEVSSPPGPAGKATTPPPGRGHRGKRKSARTSTLGHCQLLFPPCAALAVNRSKGKFTKHKCQNRGVVIHDFELPDEDFGLLKLEKLKSCSEKLIESPDSKNCGERLPREGNHAALEELQRDSETEGLEEELTVPPGEAYRPGPTLRRQPGSKDLSSSIVLFTPADTAAPNDSGRPPPSLCSPAFPILGMTPALGSQAAGETLSTEAAQPCSTSQPPLLGDTNSLVNNSKQCNSSACSPKPDTNLQASGRQGQPACDSDSGPQATPLPVESFTFRENQLCGNACLELHEHSTEQTETADRPACDNLNPGNLQLVSELKNPSSSCSVDVSAMWWERAGAKEPCIVTACEDVVSLWKPLNSLQWEKVHTWHFTEVPVLQIVPVPDVYNLICVALGSLEIREIRALLCSSGDDSEKQVLLKSGDIKAMLGLTKRRLVSSTGTFCNQQIQIMTFADDGSSKDEQLLMPPDETVLTFAEVQGTQEALLGTTTVNSIVIWNLKTGQLLKKMHIDDSYQASVCHGAYSEKGLLFVVVSQPCAKESQALGSPVFQLLVINPKTAQSVGVLLCSLPQGQAGRFLEGDVKDHVAAAVLTSGTIAIWDLLLGHCTALLPPVSDQSWSLVKWSGTDSHLLAGQKDGNIFIYRYF

Variants of: B1
Test parameters: with brca1_human BRCA1, P38398
Sequence (P38398 whole entry, looked up): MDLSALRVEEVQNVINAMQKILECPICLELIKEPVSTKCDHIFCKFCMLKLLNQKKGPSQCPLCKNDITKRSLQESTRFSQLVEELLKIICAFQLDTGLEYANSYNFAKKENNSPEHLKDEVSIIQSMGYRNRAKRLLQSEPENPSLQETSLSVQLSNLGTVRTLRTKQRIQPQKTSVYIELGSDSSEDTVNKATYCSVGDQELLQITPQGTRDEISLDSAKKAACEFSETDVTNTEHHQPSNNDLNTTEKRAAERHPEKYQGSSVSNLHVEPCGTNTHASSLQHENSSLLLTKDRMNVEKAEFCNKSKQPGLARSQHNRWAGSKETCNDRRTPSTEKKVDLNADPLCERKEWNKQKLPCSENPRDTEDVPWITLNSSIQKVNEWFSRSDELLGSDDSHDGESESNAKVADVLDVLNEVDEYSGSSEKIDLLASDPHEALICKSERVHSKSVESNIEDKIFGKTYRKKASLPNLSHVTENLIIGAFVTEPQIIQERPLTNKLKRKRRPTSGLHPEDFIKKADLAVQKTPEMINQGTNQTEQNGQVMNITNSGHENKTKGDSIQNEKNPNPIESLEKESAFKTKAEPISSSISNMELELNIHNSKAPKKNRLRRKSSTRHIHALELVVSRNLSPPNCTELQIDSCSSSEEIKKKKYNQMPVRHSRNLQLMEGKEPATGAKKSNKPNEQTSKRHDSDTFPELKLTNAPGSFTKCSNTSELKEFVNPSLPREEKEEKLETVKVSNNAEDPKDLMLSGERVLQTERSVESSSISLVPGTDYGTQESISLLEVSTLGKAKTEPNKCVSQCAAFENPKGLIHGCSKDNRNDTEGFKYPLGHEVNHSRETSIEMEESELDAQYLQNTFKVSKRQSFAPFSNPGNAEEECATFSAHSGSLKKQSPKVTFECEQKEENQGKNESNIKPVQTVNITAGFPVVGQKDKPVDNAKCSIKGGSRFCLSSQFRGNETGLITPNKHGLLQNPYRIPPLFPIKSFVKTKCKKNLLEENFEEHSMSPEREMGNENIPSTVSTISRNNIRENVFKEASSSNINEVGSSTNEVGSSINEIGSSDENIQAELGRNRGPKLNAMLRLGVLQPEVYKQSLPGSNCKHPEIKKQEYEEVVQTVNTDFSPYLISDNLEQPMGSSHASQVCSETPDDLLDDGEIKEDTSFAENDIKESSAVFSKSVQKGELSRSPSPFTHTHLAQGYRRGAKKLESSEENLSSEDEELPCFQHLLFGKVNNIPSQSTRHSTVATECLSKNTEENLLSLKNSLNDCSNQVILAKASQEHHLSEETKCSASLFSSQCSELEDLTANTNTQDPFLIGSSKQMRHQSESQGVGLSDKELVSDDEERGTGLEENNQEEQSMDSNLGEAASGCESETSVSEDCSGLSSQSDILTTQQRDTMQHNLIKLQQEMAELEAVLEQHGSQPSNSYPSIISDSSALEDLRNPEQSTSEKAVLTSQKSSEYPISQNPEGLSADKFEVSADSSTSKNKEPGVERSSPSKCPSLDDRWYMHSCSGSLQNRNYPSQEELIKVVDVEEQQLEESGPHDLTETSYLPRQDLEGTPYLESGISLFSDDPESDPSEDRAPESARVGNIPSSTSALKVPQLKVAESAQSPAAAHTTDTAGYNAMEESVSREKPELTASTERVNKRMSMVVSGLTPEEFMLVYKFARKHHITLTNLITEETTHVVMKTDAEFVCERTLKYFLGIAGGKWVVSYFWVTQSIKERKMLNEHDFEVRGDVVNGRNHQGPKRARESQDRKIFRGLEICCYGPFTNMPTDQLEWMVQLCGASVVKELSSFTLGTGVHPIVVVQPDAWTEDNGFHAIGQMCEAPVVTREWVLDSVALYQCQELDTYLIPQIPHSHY
Value type: effect of a mutation on the interaction

R37H	with no effect
K18R	with no effect
Y28C	disrupting interaction
L35P	disrupting interaction
